B1: SH3 and PX domain-containing protein 2B, residues 155 to 209; numbered along this chain, A1X283 (parent)
chain: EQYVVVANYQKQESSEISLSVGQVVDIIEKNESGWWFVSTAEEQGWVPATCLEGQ

- Variants of: B1
- assay: abundance fitness (aPCA) (normalised: wild type 0, dead -1); higher = more abundant; growth selection in yeast, the domain comes from the species named
- condition info: Homo sapiens
The entries below are paired with their reported abundance fitness.

{"columns": ["variant annotation", "abundance fitness"],
 "data": [
  ["D26A", -0.054],
  ["V5P", -0.892],
  ["V21D", -0.593],
  ["Q44A", -0.187],
  ["S15Q", 0.103],
  ["S14L", 0.027],
  ["W35S", -0.04],
  ["D26E", -0.112],
  ["E29R", 0.084],
  ["V47E", -0.776],
  ["V5C", -0.108]
]}
